Assay: Photochromic properties of binder sheet (photochromic layer prepared by binder method)
Format: physicochemical
Conditions: 0.25 mmol per 100 parts by mass resin, 23°C color optical density ε(300)-ε(0)
Recorded A23 for the following compounds

Study these solved cases before continuing.
COCCCCC1(CCCCOC)c2cc(Sc3c(C)cccc3C)ccc2-c2c1c1c(c3cc(OC)ccc23)OC(c2ccc(OC)cc2)(c2ccc(N(C)c3ccc(OC)cc3)cc2)C=C1 (centres unmarked)	0.51 -
COc1ccc(N(C)c2ccc(C3(c4ccc(CCO[Si](C)(C)CC[Si](O[Si](C)(C)C)(O[Si](C)(C)C)O[Si](C)(C)C)cc4)C=Cc4c5c(c6cc(N(C)c7ccccc7)c(OC)cc6c4O3)-c3ccc(C(F)(F)F)cc3C53CCC(C)(C)CC3)cc2)cc1 (centres unmarked)	0.84 -
CCCC1(CCC)c2ccccc2-c2c1c1c(c3cc(OC)c(-c4ccc(OC)cc4OC)cc23)OC(c2ccc(C)cc2)(c2ccc(N(C)c3ccccc3)cc2)C=C1 (centres unmarked)	0.88 -

QUERY: # A23 lookup, item COc1ccc(C2(c3ccc(N(C)c4ccccc4)cc3)C=Cc3c4c(c5cc(-c6ccc(N7CCOCC7)cc6)c(OC)cc5c3O2)-c2ccccc2C4(C)C)cc1 (centres unmarked)
RESULT: 0.97 -

QUERY: # A23 lookup, item CCCC1(CCC)c2cc(OC(F)(F)F)ccc2-c2c1c1c(c3cc(OC)c(Sc4c(C)cccc4C)cc23)OC(c2ccc(N(C)c3ccccc3)cc2)(c2ccc(OC)c(OC)c2)C=C1 (centres unmarked)
RESULT: 0.85 -

----------
Assay: Accelerated deterioration (xenon weather meter X25, 120 hours) of photochromic laminate prepared by coating method
Format: physicochemical
Settings: 0.25 mmol per 100 g monomers, A120/A0×100 after 120 hours xenon weather meter
Excerpt: First, the photochromic compound obtained in Example 1, a photoinitiator, and a polymerizable compound were mixed to obtain a curable composition. […] • [1] Maximum Absorption Wavelength (λmax): The maximum absorption wavelength after color development, measured using a spectrophotometer (instantaneous multichannel photodetector MCPD3000) manufactured by Otsuka Electronics Co., Ltd. was used as an indicator for the color tone during the color development. • [2] […]
Observation type: Residual rate (%)

COc1cc2c3c(c4c(c2cc1OC)-c1ccc(-c2ccc(C(F)(F)F)cc2)cc1C4(CCCC(F)(F)F)CCCC(F)(F)F)C=CC(c1ccc(Oc2ccccc2)cc1)(c1ccc(N(C)c2ccccc2)cc1)O3 (centres unmarked)	65
CCCCCCC1(CCCCCC)c2ccccc2-c2c1c1c(c3cc(OC)ccc23)OC(c2ccc(F)cc2)(c2ccc(N(CC)c3ccccc3)cc2)C=C1 (centres unmarked)	57
CCCC1(CCC)c2ccccc2-c2c1c1c(c3cc(OC)c(-c4ccc(OC)cc4OC)cc23)OC(c2ccc(N(C)c3ccccc3)cc2)(c2ccc(OC)c(F)c2)C=C1 (centres unmarked)	61
CCC1(CC)CCC2(CC1)c1ccccc1-c1c2c2c(c3cc(OC)c(N(c4ccccc4)c4ccccc4)cc13)OC(c1ccc(C)cc1)(c1ccc(N(C)c3ccc(C)cc3)cc1)C=C2 (centres unmarked)	67
CCCCC1(CCCC)c2cc([Si](C)(c3ccccc3)c3ccccc3)ccc2-c2c1c1c(c3cc(OC)c(C)cc23)OC(c2ccc(C)cc2)(c2ccc(N(C)c3ccccc3)cc2)C=C1 (centres unmarked)	58
CCN(c1ccc(OC)cc1)c1ccc(C2(c3ccc(OC)cc3)C=Cc3c4c(c5cc(-c6ccc(N7CCOCC7)cc6)c(OC)cc5c3O2)-c2ccccc2C4(C)C)cc1 (centres unmarked)	63
COCCOCCOCCOCCC1(CCOCCOCCOCCOC)c2cc(C(F)(F)F)ccc2-c2c1c1c(c3cc(OC)c(OC)cc23)OC(c2ccc(OC)cc2)(c2ccc(N(C)c3ccccc3)cc2)C=C1 (centres unmarked)	60
CCCCC1(CCCC)c2cc(-c3ccc(OC(C)C)cc3)ccc2-c2c1c1c(c3cc(OC)ccc23)OC(c2ccc(N(C)c3ccccc3)cc2)(c2ccc(OC)c(F)c2)C=C1 (centres unmarked)	60
COCCCC1(CCCOC)c2cc(-c3ccc(C(C)(C)C)cc3)ccc2-c2c1c1c(c3cc(OC)c(OC)cc23)OC(c2ccc(N(CCOC)c3ccccc3)cc2)(c2ccc3c(c2)OCCO3)C=C1 (centres unmarked)	67
COc1ccc(C2(c3ccc(N(C)c4ccccc4)cc3)C=Cc3c4c(c5cc(-c6ccc(N7CCSCC7)cc6)c(OC)cc5c3O2)-c2ccc(OC)cc2C4(CCC(F)(F)F)CCC(F)(F)F)cc1 (centres unmarked)	67
CCCCN(c1ccccc1)c1ccc(C2(c3ccc(C)cc3)C=Cc3c4c(c5cc(N6CCOCC6)c(OC)cc5c3O2)-c2ccccc2C4(CC)CC)cc1 (centres unmarked)	60

----------
Recorded A23 for the following molecules
Assay: Photochromic properties of binder sheet (photochromic layer prepared by binder method)
Assay type: physicochemical
Conditions: 0.25 mmol per 100 parts by mass resin, 23°C color optical density ε(300)-ε(0)

Study these solved cases before continuing.
CCCCN(c1ccccc1)c1ccc(C2(c3ccc(C)cc3)C=Cc3c4c(c5cc(N6CCOCC6)c(OC)cc5c3O2)-c2ccccc2C4(CC)CC)cc1 (stereo not shown) [Example 10]	1.35 -
CCN(c1ccc(OC)cc1)c1ccc(C2(c3ccc(OC)cc3)C=Cc3c4c(c5cc(-c6ccc(N7CCOCC7)cc6)c(OC)cc5c3O2)-c2ccccc2C4(C)C)cc1 (stereo not shown) [Example 25]	0.88 -
CCCCOCCC1(CCOCCCC)c2ccccc2-c2c1c1c(c3cc(OC)c(NC(=O)c4ccccc4)cc23)OC(c2ccc(N(C)c3ccccc3)cc2)(c2ccc(OC)c(F)c2)C=C1 (stereo not shown) [Example 53]	0.75 -

Next molecule, A23 to be filled in.
QUERY: # A23 lookup, item COCCC1(CCOC)c2ccccc2-c2c1c1c(c3cc(OC)c(-c4ccc(N(c5ccccc5)c5ccccc5)cc4)cc23)OC(c2ccc(Oc3ccccc3)cc2)(c2ccc(N(C)c3ccccc3)cc2)C=C1 (stereo not shown) [Example 23]
RESULT: 1.02 -

----------
Assay: Accelerated deterioration (xenon weather meter X25, 120 hours) of photochromic cured product prepared by kneading method
Format: physicochemical
Details: 1 mm cured product, 0.106 mmol per 100 g monomer, A120/A0×100 after 120 hours xenon weather meter
Observation type: Residual rate (%)

CCCC1(CCC)c2ccccc2-c2c1c1c(c3cc(OC)c(-c4ccc(N(C)c5ccccc5)cc4)cc23)OC(c2ccc(C)cc2)(c2ccc(N(C)c3ccccc3)cc2)C=C1 (stereo not shown) [Example 24]	65
CCCc1ccc(C2(c3ccc(N(C)c4ccccc4)cc3)C=Cc3c4c(c5cc(Sc6c(C)cccc6C)c(OC)cc5c3O2)-c2ccccc2C42CC(C)(C)CC(C)(C)C2)cc1 (stereo not shown) [Example 5]	75
CCN(c1ccc(OC)cc1)c1ccc(C2(c3ccc(OC)cc3)C=Cc3c4c(c5cc(-c6ccc(N7CCOCC7)cc6)c(OC)cc5c3O2)-c2ccccc2C4(C)C)cc1 (stereo not shown) [Example 25]	68
COCCN(c1ccccc1)c1ccc(C2(c3ccc4c(c3)OCCO4)C=Cc3c4c(c5cc6c(cc5c3O2)SC(C)(C)O6)-c2ccccc2C42CCC3(CCCCC3)CC2)cc1 (stereo not shown) [Example 14]	71
CCCC1(CCC)c2cc(OC)ccc2-c2c1c1c(c3cc(OC)ccc23)OC(c2ccc(OC)cc2)(c2ccc(N(C)c3ccccc3)cc2)C=C1 (stereo not shown) [Example 3]	61
CCCCC1(CCCC)c2cc(-c3ccc(OC(C)C)cc3)ccc2-c2c1c1c(c3cc(OC)ccc23)OC(c2ccc(N(C)c3ccccc3)cc2)(c2ccc(OC)c(F)c2)C=C1 (stereo not shown) [Example 21]	68
CCC1(CC)CCC2(CC1)c1cc(OC(F)(F)F)ccc1-c1c2c2c(c3cc(OC)ccc13)OC(c1ccc(N(C)c3ccccc3)cc1)(c1ccc(OC)c(C)c1)C=C2 (stereo not shown) [Example 16]	64
COCCOCCC1(CCOCCOC)c2cc(C)ccc2-c2c1c1c(c3cc(C)ccc23)OC(c2ccc(N(C)c3ccc(F)cc3)cc2)(c2ccc(OC)c(OC)c2)C=C1 (stereo not shown) [Example 8]	68
COCCOCCOCCOCCC1(CCOCCOCCOCCOC)c2cc(C(F)(F)F)ccc2-c2c1c1c(c3cc(OC)c(OC)cc23)OC(c2ccc(OC)cc2)(c2ccc(N(C)c3ccccc3)cc2)C=C1 (stereo not shown) [Example 51]	68
CCCC1(CCC)c2ccccc2-c2c1c1c(c3cc(OC)c(-c4ccc(OC)cc4OC)cc23)OC(c2ccc(C)cc2)(c2ccc(N(C)c3ccccc3)cc2)C=C1 (stereo not shown) [Example 19]	73
CCCC1(CCC)c2cc(OC(F)(F)F)ccc2-c2c1c1c(c3cc(OC)c(Sc4c(C)cccc4C)cc23)OC(c2ccc(N(C)c3ccccc3)cc2)(c2ccc(OC)c(OC)c2)C=C1 (stereo not shown) [Example 57]	72
CCCC1(CCC)c2ccccc2-c2c1c1c(c3cc(OC)c(-c4ccc(OC)cc4OC)cc23)OC(c2ccc(N(C)c3ccccc3)cc2)(c2ccc(OC)c(F)c2)C=C1 (stereo not shown) [Example 7]	68
COc1ccc(C2(c3ccc(N(C)c4ccccc4)cc3)C=Cc3c4c(c5cc(-c6ccc(N7CCOCC7)cc6)c(OC)cc5c3O2)-c2ccccc2C4(C)C)cc1 (stereo not shown) [Example 1]	72
CCC1(CC)CCC2(CC1)c1ccccc1-c1c2c2c(c3cc(OC)c(N(c4ccccc4)c4ccccc4)cc13)OC(c1ccc(C)cc1)(c1ccc(N(C)c3ccc(C)cc3)cc1)C=C2 (stereo not shown) [Example 2]	72
CCCCN(c1ccccc1)c1ccc(C2(c3ccc(C)cc3)C=Cc3c4c(c5cc(N6CCOCC6)c(OC)cc5c3O2)-c2ccccc2C4(CC)CC)cc1 (stereo not shown) [Example 10]	68
COCCCCC1(CCCCOC)c2ccccc2-c2c1c1c(c3cc(-c4ccc(OC)cc4OC)c(OC)cc23)OC(c2ccc(N(C)c3ccccc3)cc2)(c2ccc3c(c2)CCO3)C=C1 (stereo not shown) [Example 62]	67
